The values you see were collected from ChEMBL document CHEMBL1128482.

- Organism: Cavia porcellus
- Assay method text: Calcium channel agonist activity in guinea pig left atrium (GPLA) at 10e-7 M
- Format: functional
- Condition info: Cardiac atrium
Measured metric: EC50 (nM)

>>> result("COC(=O)C1=C(C)NC(C)=C([N+](=O)[O-])C1c1ccccc1C(F)(F)F (stereo unspecified)")
770

* * *

- Species: Cavia porcellus
- Assay method text: Calcium channel antagonist activity in guinea pig ileum longitudinal smooth muscle (GPILSM) at 10e-6 M
- Type: functional, organism-based
pIC50: −log10 of the molar value.
Measured metric: pIC50

>>> result("CC1=NC(C)=C([N+](=O)[O-])C(c2ccccn2)/C1=C(\\O)OC(C)C (racemic)")
5.31
